biological target: CYP2C19 (Homo sapiens, UniProt P33261); assay: Inhibition of CYP2C19 at 10 uM; assay type: ADME
Sequence (P33261 whole entry): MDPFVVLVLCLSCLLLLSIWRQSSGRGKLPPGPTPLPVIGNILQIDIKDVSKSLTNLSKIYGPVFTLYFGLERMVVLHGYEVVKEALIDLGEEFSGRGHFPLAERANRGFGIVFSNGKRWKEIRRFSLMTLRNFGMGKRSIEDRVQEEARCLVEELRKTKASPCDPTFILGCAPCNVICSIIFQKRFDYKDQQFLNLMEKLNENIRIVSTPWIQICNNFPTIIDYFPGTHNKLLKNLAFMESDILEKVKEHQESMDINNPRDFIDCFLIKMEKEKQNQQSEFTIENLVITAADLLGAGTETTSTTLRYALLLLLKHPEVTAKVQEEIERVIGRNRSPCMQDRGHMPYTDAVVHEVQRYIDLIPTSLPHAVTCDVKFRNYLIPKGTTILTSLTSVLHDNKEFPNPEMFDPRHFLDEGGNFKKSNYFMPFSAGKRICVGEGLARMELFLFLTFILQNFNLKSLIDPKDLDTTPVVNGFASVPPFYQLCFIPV
The reader will find reported inhibition at 10 µM values listed item by item below.

Some molecules with known inhibition at 10 µM results, for comparison:
CS(=O)(=O)N1CCN(Cc2cn3c(Cl)c(-c4cnc(N)nc4)nc(N4CCOCC4)c3n2)CC1    < 30%
CS(=O)(=O)N1CCN(Cc2cn3cc(-c4cnc(N)nc4C(F)(F)F)nc(N4CCOCC4)c3n2)CC1    < 30%
Cc1c(CN2CCN(S(C)(=O)=O)CC2)nc2c(N3CCOCC3)nc(-c3cnc(N)nc3)cn12    < 30%
CS(=O)(=O)N1CCN(Cc2cn3cc(-c4cnc(N)nc4)nc(N4CCOCC4)c3n2)CC1    < 30%
CCS(=O)(=O)N1CCN(Cc2cn3cc(-c4cnc(N)nc4)nc(N4CCOCC4)c3n2)CC1    < 30%

Now look at this entry.
# inhibition at 10 µM of CS(=O)(=O)N1CCN(Cc2nc3c(N4CCOCC4)nc(-c4cnc(N)nc4)cn3c2Br)CC1 = < 30%

---

molecular target: PI3-kinase p110-alpha/p85-alpha (Homo sapiens); experiment: Inhibition of human PI3Kalpha (p110alpha/p85alpha) by ADP accumulation based HTRF assay
Sequence (P27986 whole entry): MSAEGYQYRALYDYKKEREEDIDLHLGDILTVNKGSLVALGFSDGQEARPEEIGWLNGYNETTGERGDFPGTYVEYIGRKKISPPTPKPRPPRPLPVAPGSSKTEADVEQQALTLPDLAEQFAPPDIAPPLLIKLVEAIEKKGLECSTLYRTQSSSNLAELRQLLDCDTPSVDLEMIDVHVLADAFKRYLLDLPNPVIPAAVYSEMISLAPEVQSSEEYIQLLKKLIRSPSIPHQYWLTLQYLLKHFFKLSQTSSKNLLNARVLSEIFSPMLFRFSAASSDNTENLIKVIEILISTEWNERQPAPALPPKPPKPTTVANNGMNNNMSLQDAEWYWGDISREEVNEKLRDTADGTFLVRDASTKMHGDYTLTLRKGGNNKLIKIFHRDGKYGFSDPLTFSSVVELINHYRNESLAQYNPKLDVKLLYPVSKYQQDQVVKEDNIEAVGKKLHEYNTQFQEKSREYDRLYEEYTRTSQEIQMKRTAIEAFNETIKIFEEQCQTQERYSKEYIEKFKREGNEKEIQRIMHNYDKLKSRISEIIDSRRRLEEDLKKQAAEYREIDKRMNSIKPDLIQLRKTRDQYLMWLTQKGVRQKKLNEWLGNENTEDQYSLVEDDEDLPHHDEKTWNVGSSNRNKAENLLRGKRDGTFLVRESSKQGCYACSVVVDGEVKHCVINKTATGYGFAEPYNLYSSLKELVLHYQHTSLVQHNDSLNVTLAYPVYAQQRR
Sequence (P42336 whole entry): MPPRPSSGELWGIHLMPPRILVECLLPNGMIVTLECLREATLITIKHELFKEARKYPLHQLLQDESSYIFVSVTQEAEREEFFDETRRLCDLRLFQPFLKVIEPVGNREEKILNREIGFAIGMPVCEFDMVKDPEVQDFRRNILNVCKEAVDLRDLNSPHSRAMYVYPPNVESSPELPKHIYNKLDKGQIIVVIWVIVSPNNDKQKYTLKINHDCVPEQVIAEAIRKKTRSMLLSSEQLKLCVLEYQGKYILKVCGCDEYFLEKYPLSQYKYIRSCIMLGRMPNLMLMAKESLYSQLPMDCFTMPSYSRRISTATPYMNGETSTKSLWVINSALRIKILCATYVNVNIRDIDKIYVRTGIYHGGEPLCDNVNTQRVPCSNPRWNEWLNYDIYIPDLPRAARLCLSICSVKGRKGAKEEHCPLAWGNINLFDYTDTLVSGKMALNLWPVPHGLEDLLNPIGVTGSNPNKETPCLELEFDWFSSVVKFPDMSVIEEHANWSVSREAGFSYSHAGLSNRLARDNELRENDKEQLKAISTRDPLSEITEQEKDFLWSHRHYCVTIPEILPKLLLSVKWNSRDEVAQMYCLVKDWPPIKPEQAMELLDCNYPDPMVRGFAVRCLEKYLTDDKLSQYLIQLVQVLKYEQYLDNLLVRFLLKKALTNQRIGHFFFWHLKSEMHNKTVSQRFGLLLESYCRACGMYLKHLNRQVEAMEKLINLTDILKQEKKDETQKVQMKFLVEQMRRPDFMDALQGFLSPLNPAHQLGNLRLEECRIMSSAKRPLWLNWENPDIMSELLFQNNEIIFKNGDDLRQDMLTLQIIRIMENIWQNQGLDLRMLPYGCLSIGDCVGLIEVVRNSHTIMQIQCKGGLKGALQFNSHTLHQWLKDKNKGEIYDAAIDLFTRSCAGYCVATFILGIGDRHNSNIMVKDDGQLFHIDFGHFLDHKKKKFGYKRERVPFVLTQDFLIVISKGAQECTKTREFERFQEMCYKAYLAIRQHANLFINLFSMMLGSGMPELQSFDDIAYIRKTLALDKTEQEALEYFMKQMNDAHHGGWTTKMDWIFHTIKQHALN
READOUT LABEL: IC50 (nM)
// return numeric value only (unit: nM, not printed)

CS(=O)(=O)N1CCN(Cc2cn3cc(-c4cnc(N)nc4C(F)(F)F)nc(N4CCOCC4)c3n2)CC1    6.8
CS(=O)(=O)N1CC2CN(Cc3cn4cc(-c5cnc(N)nc5)nc(N5CCOCC5)c4n3)CC2C1 (stereo not drawn)    117
C[C@@H]1CN(S(C)(=O)=O)C[C@H](C)N1Cc1cn2cc(-c3cnc(N)nc3)nc(N3CCOCC3)c2n1    3.2
CS(=O)(=O)N1CCN(Cc2cn3cc(-c4cccc5[nH]ccc45)nc(N4CCOCC4)c3n2)CC1    2500
CNc1ncc(-c2cn3cc(CN4CCN(S(C)(=O)=O)CC4)nc3c(N3CCOCC3)n2)cn1    16.4

Log: PI3-kinase p110-alpha/p85-alpha (Homo sapiens), molecule CS(=O)(=O)N1CCN(Cc2cn3c(Cl)c(-c4cnc(N)nc4C(F)(F)F)nc(N4CCOCC4)c3n2)CC1 , IC50 = 6.8

Log: PI3-kinase p110-alpha/p85-alpha (Homo sapiens), molecule C[C@@H]1CN(Cc2cn3cc(-c4cnc(N)nc4)nc(N4CCOCC4)c3n2)CCN1S(C)(=O)=O , IC50 = 2.6

---

molecular target: UniProt:O60674; assay: Inhibition of JAK2 at 5 uM
Sequence (O60674 whole entry): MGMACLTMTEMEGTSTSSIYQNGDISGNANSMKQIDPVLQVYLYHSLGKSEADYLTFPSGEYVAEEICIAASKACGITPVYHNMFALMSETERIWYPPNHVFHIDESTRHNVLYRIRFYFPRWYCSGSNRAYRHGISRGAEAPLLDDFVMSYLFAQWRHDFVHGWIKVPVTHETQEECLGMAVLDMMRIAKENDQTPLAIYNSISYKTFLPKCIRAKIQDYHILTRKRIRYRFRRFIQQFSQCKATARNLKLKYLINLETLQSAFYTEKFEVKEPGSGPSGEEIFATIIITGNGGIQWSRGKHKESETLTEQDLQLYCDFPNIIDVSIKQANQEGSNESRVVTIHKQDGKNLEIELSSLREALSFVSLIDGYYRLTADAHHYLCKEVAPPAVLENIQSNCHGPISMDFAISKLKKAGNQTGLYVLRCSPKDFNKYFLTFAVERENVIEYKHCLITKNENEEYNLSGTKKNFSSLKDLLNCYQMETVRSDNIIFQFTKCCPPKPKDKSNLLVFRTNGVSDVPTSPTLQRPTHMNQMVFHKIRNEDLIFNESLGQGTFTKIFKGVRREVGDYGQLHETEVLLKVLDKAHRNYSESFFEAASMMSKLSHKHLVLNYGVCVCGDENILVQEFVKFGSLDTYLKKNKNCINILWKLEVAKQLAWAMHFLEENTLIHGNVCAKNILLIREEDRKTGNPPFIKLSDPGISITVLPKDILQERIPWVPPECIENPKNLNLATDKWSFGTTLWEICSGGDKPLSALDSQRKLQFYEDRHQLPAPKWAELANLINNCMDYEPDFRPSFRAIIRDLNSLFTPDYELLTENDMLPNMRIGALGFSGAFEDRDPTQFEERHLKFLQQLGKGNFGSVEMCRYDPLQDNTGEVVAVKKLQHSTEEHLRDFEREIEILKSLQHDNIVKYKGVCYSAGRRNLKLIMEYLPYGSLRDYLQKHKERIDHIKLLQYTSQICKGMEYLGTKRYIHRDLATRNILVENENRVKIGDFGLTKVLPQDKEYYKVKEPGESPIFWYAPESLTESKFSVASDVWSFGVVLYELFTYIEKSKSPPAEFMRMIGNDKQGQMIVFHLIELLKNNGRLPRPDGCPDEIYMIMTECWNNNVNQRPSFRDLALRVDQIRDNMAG
The reader will find reported inhibition values listed item by item below.

Cc1nc(N)ncc1-c1cn2cc(CN3CCN(S(C)(=O)=O)CC3)nc2c(N2CCOCC2)n1    < 30%

# inhibition of Cc1c(CN2CCN(S(C)(=O)=O)CC2)nc2c(N3CCOCC3)nc(-c3cnc(N)nc3)cn12 = < 30%

# inhibition of CS(=O)(=O)N1CCN(Cc2cn3c(Cl)c(-c4cnc(N)nc4)nc(N4CCOCC4)c3n2)CC1 = < 30%

The reported measurements were obtained from ChEMBL document CHEMBL2086238.
